Tested on: SK-MEL-28
Assay: NCI tumour cell line growth inhibition, 48 h
Calls of active or inactive are those of the source. Cut-off read from the data, not from the text of the source: active = GI50 up to about 1.1 µM and inactive = higher.
Examples of compounds with documented GI50 follow.

The cases that follow already have their GI50 on record.
Which GI50 reading was recorded for the compound "Cc1ccccc1-c1nc2c(N)nc(N)nc2nc1N" ?
67.9 µM (inactive)

Here is the next compound: "Clc1ccc(N/N=C(\c2ccccc2)c2ccccn2)nc1"
2.67 µM (inactive)

Please turn your attention to the following entry.
# query: GI50 of entry "CN(C)C(=N)NC(N)=S"
> 100 µM (inactive)

---

Test system: CAKI-1
Test: NCI tumour cell line growth inhibition, 48 h
The source made the active and inactive calls. Cut-off read from the data, not from the text of the source: active = GI50 up to about 1.1 µM and inactive = higher.
Give one outcome, nothing more. List: t (active), f (inactive)

Could you kindly confirm the outcome this assay logged for COC(=O)c1cc2cc3c(c(O)c2c(=O)o1)O[C@@]1(Oc2c(O)c4c(c(O)c2[C@H]1OC1CC(OC)C(O)C(C)O1)C(=O)C=C(OC)C4=O)[C@H](O)C3 (stereo partly specified) ?
t

Queued: "CC#CC(=O)Nc1ccccc1CC(c1c[nH]c2ccccc12)c1c[nH]c2ccccc12"
f

Next: "Cc1ccc(S(=O)(=O)NC(=O)NCC(=O)NCC(=O)O)cc1"
f

Then this compound:
Check the results log: what was the call for CN(C)C(=O)C(F)(F)C(c1ccccc1Br)C1C(=O)N(C)C(=O)N(C)C1=O (stereo unspecified) ?
f
